biological target: UniProt P08684; test: Inhibition of CYP3A4 in human liver microsomes assessed as 6-beta-hydroxytestosterone metabolite formation using testosterone as substrate incubated for 30 mins by HPLC-MS method
Lab note: anything with IC50 below 8 µM is marked y; values at 8 µM or higher are marked n.

hey, is IC50 for Cn1c(NCCc2ccc(-c3ccc(F)cc3)cc2)nc2cc(Cl)ccc2c1=O lower than 8 µM or not?
n

Does this compound meet the criterion IC50 < 8 µM? COc1ccc(CCNc2nc3cc(OC)ccc3c(=O)n2C)cc1
n

Does COc1ccc(CCNc2nc3cc(Cl)ccc3c(=O)n2C)cc1 have IC50 strictly under 8 µM?
y

Regarding Cn1c(NCCc2ccc(Oc3ccc(Cl)cc3)cc2)nc2cc(Cl)ccc2c1=O , kindly confirm whether its IC50 is beneath 8 µM.
n

Consider the compound Cn1c(NCCc2ccc(-c3ccccc3)cc2)nc2cc(Cl)ccc2c1=O . Is its IC50 strictly less than 8 µM?
n

Problem: For the compound Cn1c(NCCc2ccc(-c3ncc(F)cn3)cc2)nc2cc(Cl)ccc2c1=O , is IC50 under 8 µM?
n

Lab note: IC50 threshold 8 µM. Does this compound come in strictly under it? COc1ccc(CCNc2nc3cc(Cl)ccc3c(=O)n2C)nc1
y

Lab log: compare recorded IC50 with 8 µM; is it strictly lower for Cn1c(NCCc2ccccc2)nc2cc(Cl)ccc2c1=O ?
n

Take the compound Cn1c(NCCc2ccc(-c3ccc(Cl)cn3)cc2)nc2cc(Cl)ccc2c1=O and say whether its IC50 is less than 8 µM.
n

Please check: IC50 for COc1ccc(CCNc2nc3cc(C)ccc3c(=O)n2C)cc1 , strictly under 8 µM or not?
y

A record lists Cn1c(NCCc2ccc(OC(F)(F)F)cc2)nc2cc(Cl)ccc2c1=O . Is its IC50 below 8 µM?
n

Take the compound Cn1c(NCCc2ccc(N3CCOCC3)cc2)nc2cc(Cl)ccc2c1=O and say whether its IC50 is less than 8 µM.
n

###

molecular target: Cytochrome P450 3A4 (Homo sapiens, UniProt P08684); assay: Inhibition of CYP3A4 in human liver microsomes assessed as 1'-hydroxymidazolam metabolite formation using midazolam as substrate incubated for 10 mins by HPLC-MS method
Sequence (P08684 whole entry): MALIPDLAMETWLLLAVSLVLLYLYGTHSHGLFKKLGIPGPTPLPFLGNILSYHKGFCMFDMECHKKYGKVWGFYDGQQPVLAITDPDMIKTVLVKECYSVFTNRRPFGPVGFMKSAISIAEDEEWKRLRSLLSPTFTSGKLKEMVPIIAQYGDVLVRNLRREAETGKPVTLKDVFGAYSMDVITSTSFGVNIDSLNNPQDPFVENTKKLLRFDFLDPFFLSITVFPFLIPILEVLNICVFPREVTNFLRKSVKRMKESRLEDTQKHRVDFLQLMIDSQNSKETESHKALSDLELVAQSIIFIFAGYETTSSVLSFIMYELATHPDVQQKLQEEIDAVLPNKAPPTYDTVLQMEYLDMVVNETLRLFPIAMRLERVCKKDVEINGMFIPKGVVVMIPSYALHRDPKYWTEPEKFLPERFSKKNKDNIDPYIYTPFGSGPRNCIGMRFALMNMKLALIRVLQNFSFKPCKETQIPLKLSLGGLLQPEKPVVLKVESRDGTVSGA
observable: pIC50
// pIC50 here means minus log10 of the molar concentration (mol/L)

Consider the molecule shown here: Cn1c(NCCc2ccc(-n3cc(Cl)cn3)cc2)nc2cc(Cl)ccc2c1=O What is its recorded pIC50?
4.80

For Cn1c(NCCc2ccc(OC(F)(F)F)cc2)nc2cc(Cl)ccc2c1=O , what is its reported pIC50?
5.40

###

assay: Bioavailability in Swiss mouse at 3 mg/kg, iv administered as single bolus dose in NMP/Solutol HS15/PBS solution after 24 hrs; type: ADME, organism-based; conditions: in vivo
observable: bioavailability (%)
Hi! Could you send only the number? It should be in %, unit omitted.

Reported bioavailability for Cn1c(NCCc2ccc(Oc3ccc(Cl)cc3)cc2)nc2cc(Cl)ccc2c1=O : what is it?
90

###

assay: Solubility in 90%/10% PEG200/vitamin -E TPGS solution; format: physicochemical
observable: solubility (mg/mL)
Respond with the bare value in mg/mL.

Could you share which solubility value was measured for Cn1c(NCCc2ccc(-c3ccc(F)cc3)cc2)nc2cc(Cl)ccc2c1=O ?
20

###

experiment: Protein binding in Swiss mouse plasma at 1 to 10 uM after 4 hrs by LC-MS/MS analysis; type: ADME, cell-free; details: read-out: PPB (converted)
Kindly state fraction unbound at 4 h for each of the entries shown.
The answer should be written as a number, with no unit following it.

What does the data say about its fraction unbound at 4 h? Entry: Cn1c(NCCc2ccc(Oc3ccc(Cl)cc3)cc2)nc2cc(Cl)ccc2c1=O
0.001

Reported fraction unbound at 4 h for Cn1c(NCCc2ccc(-c3ccc(F)cc3)cc2)nc2cc(Cl)ccc2c1=O : what is it?
0.001

Fill in: fraction unbound at 4 h of Cn1c(NCCc2ccc(-c3ccc(F)cc3)cc2)nc2cc(N)ccc2c1=O is ___
0.002

Values compiled from ChEMBL document CHEMBL3853353.
